The measurements presented in this section are drawn from patent US20230150981A1.

# target entity: SSTR4 (Homo sapiens)
# Construct: host or cells: CHO-K1
# Sequence (P31391 whole entry): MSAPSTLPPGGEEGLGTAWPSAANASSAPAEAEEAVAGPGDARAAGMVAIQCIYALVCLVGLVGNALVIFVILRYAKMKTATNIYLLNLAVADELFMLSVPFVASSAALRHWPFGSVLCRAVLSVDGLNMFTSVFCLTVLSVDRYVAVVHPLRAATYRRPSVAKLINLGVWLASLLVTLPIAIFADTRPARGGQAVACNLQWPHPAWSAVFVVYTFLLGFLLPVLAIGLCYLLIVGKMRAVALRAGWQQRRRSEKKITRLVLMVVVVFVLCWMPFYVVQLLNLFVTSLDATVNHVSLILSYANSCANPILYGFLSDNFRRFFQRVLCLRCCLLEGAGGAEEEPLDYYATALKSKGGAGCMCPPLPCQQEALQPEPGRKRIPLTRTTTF
# assay overview: Inhibition of forskolin stimulated cAMP in CHO-K1 cells overexpressing SSTR4
# Format: cell-based
# measurement setup: read-out: SSTR4 Activity pEC50 (converted)
measured property: EC50 (µM)
Enter your answer as a number in µM; do not include the unit.

Some molecules with known EC50 results, for comparison:
{"molecule": "Cc1cccnc1OCC(C)(C)NC(=O)[C@H](C)[C@@H]1CCCN1C (racemic)", "EC50 [µM]": 0.0158}
{"molecule": "O=C(CCN1CCC1)NC(c1cc(F)ccc1F)C(F)F (stereo not shown)", "EC50 [µM]": 0.0251}
{"molecule": "COc1ccc(C(C)(C)NC(=O)[C@@H](C)CN2CCC2)cc1 (single isomer, unassigned)", "EC50 [µM]": 1.26}
{"molecule": "Cc1cccnc1OCC(C)(C)NC(=O)CC1CCC(C)N1C (stereo not shown)", "EC50 [µM]": 0.0251}
{"molecule": "O=C(CCN1CCCC1)N[C@H](c1cccc(Cl)c1)C(F)F (single isomer, unassigned)", "EC50 [µM]": 0.00631}
{"molecule": "COc1c(F)cccc1C(C)(C)NC(=O)C(C)CN1CCC1 (stereo not shown)", "EC50 [µM]": 0.000794}
{"molecule": "CN1CCC[C@@H]1CC(=O)NC(C)(C)COc1ncccc1OC(F)(F)F", "EC50 [µM]": 0.02}
{"molecule": "O=C(CCN1CCC1)NC(c1cccc(F)c1)C(F)(F)F (single isomer, unassigned) [Example 208]", "EC50 [µM]": 0.00316}
{"molecule": "CN1CCC[C@@H]1CC(=O)NC(C)(C)c1ccc(Cl)cc1", "EC50 [µM]": 0.0501}
{"molecule": "Cc1ccccc1C(C)(C)NC(=O)[C@H](C)CN1CCC1 (single isomer, unassigned)", "EC50 [µM]": 0.00631}

Would you kindly look at the next entry?
Exam item: GET /values?readout=EC50&item= CC(C)[C@@H](CN1CCC1)C(=O)N[C@H](c1ccccc1)C(F)F
Marked response: 0.0002
